Experiment: Estimation of lung levels after nebulisation
Type: in vivo
Settings: guinea pig, inhaled, nebulisation with submaximal bronchodilator activity, 2 hours after treatment, read-out: retained dose in the target organ (lung)
measurementName: concentration at 2 h

Entry `O=C(C[N+]12CCC(CC1)[C@@H](OC(=O)N(Cc1cc(F)c(F)c(F)c1)c1cccc(F)c1)C2)c1cccs1.[Cl-]` has what concentration at 2 h?
~50 ng/g

meta.source: patent US20090180969A1
